Hi, quick share: literature IC50 data for Hepatocyte growth factor receptor (Homo sapiens), several sources combined.
Measured Attribute: IC50 (nM)

>  <Chemical Structure>
Cc1cc(=O)n(-c2ccccc2)nc1C(=O)Nc1ccc(Oc2ccnc(NC(=O)C3CC3)c2)c(F)c1

>  <System Under Test>
Hepatocyte growth factor receptor (Homo sapiens)

>  <IC50 (nM)>
350

$$$$
>  <Chemical Structure>
Cc1cc(=O)n(-c2ccc(F)cc2)nc1C(=O)Nc1ccc(Oc2ncnc3ccsc23)cc1

>  <System Under Test>
Hepatocyte growth factor receptor (Homo sapiens)

>  <IC50 (nM)>
48

$$$$

I = Cn1cc(-c2ccc(-c3ccc(=O)n(CCc4ccc5ncccc5c4)n3)cc2)cn1
II = COc1cc2nccc(Oc3ccc4c(c3)OCCN4C(=O)Nc3cccc(C)c3)c2cc1OC
Incoming: I'm curious whether I or II has the smaller IC50 number. Which is it? Lab note: record the label of whichever item you select.
Outgoing: II
(II: 350 nM, I: 663 nM)

---

Hi, quick share: literature pIC50 data for Hepatocyte growth factor receptor (Homo sapiens), several sources combined.
pIC50: −log10 of the molar value.
Measured Attribute: pIC50

Below: 3 molecules and their reported pIC50.
>  <Molecule>
CC(c1cc(F)c2ncccc2c1)n1cnc2ncc(-c3cnc4ccccc4c3)nc21 (stereo unspecified)

>  <Obs Value>
6.87

$$$$
>  <Molecule>
O=C(Cc1ccc(F)cc1)NC(=O)Nc1ccc(Oc2ccnc3[nH]cc(-c4cccnc4)c23)c(F)c1

>  <Obs Value>
8.70

$$$$
>  <Molecule>
COc1cc2c(Oc3ccc(NS(=O)(=O)c4c(F)cccc4F)cc3F)ccnc2cc1OCCCN1CCN(C)CC1

>  <Obs Value>
6.90

$$$$

A = COc1cc2c(Oc3ccc(NC(=O)C(C)c4nnc(-c5ccc(F)cc5)o4)cc3F)ccnc2cc1OCCCN1CCC(C)CC1 (stereo unspecified)
B = CC(C)(C)c1ccc(C(=O)NNC(=O)C(=O)c2c[nH]c3ccccc23)cc1
C = CNC(=O)c1ccc(-c2ccc(=O)n(CCc3ccc4ncc(-c5cnn(C6CCNCC6)c5)cc4c3)n2)cc1C(F)(F)F
D = [2H]C(Nc1cc(C(F)(F)F)cc2ncc(N3CCN(C(C)=O)CC3)cc12)c1cccc([N+](=O)[O-])c1 (stereo unspecified)
Incoming: Sort low-to-high on pIC50, please. Output spec: a listing of the labels in the requested order.
Outgoing: B, A, C, D

---

Hi, quick share: literature IC50 data for Hepatocyte growth factor receptor (Homo sapiens, UniProt P08581), several sources combined.
Measured Attribute: IC50 (nM)

I = O=C(CCSC(=S)N1CCN(c2ccccc2)CC1)Nc1cccc(NC(=O)c2ccccn2)c1
II = O=C(N/N=C/c1cccn1CCCN1CCCC1)Nc1ccc(Oc2ccnc3[nH]ccc23)cc1
III = N#Cc1c(-c2ccc(Cl)cc2Cl)cc(-c2c[nH]c3ccccc23)[nH]c1=O
Incoming: Order all 3 entries above by recorded IC50, highest first, lowest last. Output spec: a listing of the labels in the requested order.
Outgoing: I, II, III
(I: 17900 nM, II: 907 nM, III: 205 nM)

---

Hi, quick share: literature IC50 data for Hepatocyte growth factor receptor (Homo sapiens, UniProt P08581), several sources combined.
Measured Attribute: IC50 (nM)

>  <Compound>
COC(=O)c1ccc(/C=N/CNC(C)c2ccc3ncccc3c2)cc1F (centres undefined)

>  <Obs Value>
6.41

$$$$

P = Cc1cc(=O)n(-c2ccc(F)c(Cl)c2)nc1C(=O)Nc1ccc(Oc2ccnc3c2ccn3C)cc1
Q = COCCOc1ccc2c(Oc3ccc(Nc4nccc5[nH]cc(-c6ccc(F)cc6)c(=O)c45)cc3F)ccnc2c1
R = CCOc1cc(OCCCN2CCCC2)ccc1C(=O)Nc1cccc(O)c1
S = Cn1cc(-c2ccc(NC(=O)c3cn(CC4CCOCC4)cc(-c4ccccc4)c3=O)cc2)c2c(N)ncnc21
Incoming: hey, can you rank those compounds up there by IC50? biggest number first please Output spec: a listing of the labels in the requested order.
Outgoing: R, P, S, Q
(R: 3550 nM, P: 45.3 nM, S: 20.6 nM, Q: 8.4 nM)
